Assay: melting temperature; fluorescence melt of hairpins on a sequencing array, two-state fit, raised by 9.35 °C to match UV melts
Conditions: sodium 0.088 M
assayMetric: Tm
State the value with its unit after it.

Find the recorded Tm belonging to GATCTGCACGCAGATC ((((((....)))))) and report it. 58.8 °C

Find the recorded Tm belonging to GATCCGGCCCGGATC ((((((...)))))) and report it. 58.9 °C

Find the recorded Tm belonging to GCACCGGGAAACTGGTGC (((((.(....).))))) and report it. 61.2 °C

Find the recorded Tm belonging to GCTCGCGAAAGCGCAAGC ((((((....)))..))) and report it. 48.5 °C

Find the recorded Tm belonging to GATCTTGCACAAGATC ((((((....)))))) and report it. 50.8 °C

Find the recorded Tm belonging to GCCCGCGAAAGCGGAGGC ((((((....)))..))) and report it. 60 °C

----------
Assay: melting temperature; fluorescence melt of hairpins on a sequencing array, two-state fit, raised by 9.35 °C to match UV melts
Details: sodium 0.088 M
Ranges used to classify Tm: low band (below 40 °C), middle band (40 °C to below 50 °C), high band (50 °C or more)

Would you mind sorting GACAATGGAAACATTGTC (((((((....))))))) into the appropriate category? high band

Would you mind sorting GCTAAGCGAAAGCTTTGC ((.((((....)))).)) into the appropriate category? high band

Would you mind sorting GCGAAGGGAAACCTTCAC (.(((((....))))).) into the appropriate category? low band

Would you mind sorting GCGAGCGAAAGCTTCCGC ((((((....)))..))) into the appropriate category? middle band

Would you mind sorting GCTTTTGGAAACAAAGGC ((.((((....)))).)) into the appropriate category? middle band

Would you mind sorting GCTATGGGAAACCATAAC (.(((((....))))).) into the appropriate category? low band

Would you mind sorting GCGTTCCCGAAAGGGCGC (((..(((....)))))) into the appropriate category? high band

Would you mind sorting GGGCGAGGAAACCCACCC (((.(.(....).).))) into the appropriate category? low band

----------
Assay: folding enthalpy; higher = less favourable; fluorescence melt of hairpins on a sequencing array, two-state fit
Settings: sodium 0.088 M
Classify by measured folding enthalpy: TRUE if it is equal to or exceeds -30 kcal/mol, FALSE if it is smaller.

Determine whether this sequence has folding enthalpy no lower than -30 kcal/mol: GGTAACCCGAAAGGGACC (((..(((....)))))) TRUE

Determine whether this sequence has folding enthalpy no lower than -30 kcal/mol: GATCGGAGGTCCGATC ((((((....)))))) FALSE

Determine whether this sequence has folding enthalpy no lower than -30 kcal/mol: GGTTAGCCGAAAGGCACC (((..(((....)))))) TRUE

Determine whether this sequence has folding enthalpy no lower than -30 kcal/mol: GAGCTGGGAAACCGGTTC ((.(.((....)).).)) TRUE

Determine whether this sequence has folding enthalpy no lower than -30 kcal/mol: CAAGCAGAAATGGTTG (((.((....)).))) TRUE

Determine whether this sequence has folding enthalpy no lower than -30 kcal/mol: GGCCCGGGAAACCGGGTC (.(((((....))))).) TRUE

Determine whether this sequence has folding enthalpy no lower than -30 kcal/mol: GTGTGCGGAAACACACAC (((((.(....).))))) FALSE

Determine whether this sequence has folding enthalpy no lower than -30 kcal/mol: GTCTGCGAAAGCAGGAC ((((((....))).))) TRUE

Determine whether this sequence has folding enthalpy no lower than -30 kcal/mol: GTCCACGAAAGTGCTGAC ((((((....)))..))) TRUE

Determine whether this sequence has folding enthalpy no lower than -30 kcal/mol: GTTTCGGGAAACTGAGAC ((.((.(....).)).)) TRUE

Determine whether this sequence has folding enthalpy no lower than -30 kcal/mol: GATCGGCGTCCGATC ((((((...)))))) FALSE

Determine whether this sequence has folding enthalpy no lower than -30 kcal/mol: CGCGGAAAAACAACCGCG ((..............)) TRUE

Determine whether this sequence has folding enthalpy no lower than -30 kcal/mol: GATCGGTGACCGATC ((((((...)))))) FALSE

Determine whether this sequence has folding enthalpy no lower than -30 kcal/mol: GTAACACGAAAGTGATAC (((.(((....))).))) TRUE

Determine whether this sequence has folding enthalpy no lower than -30 kcal/mol: GCTGATGGAAACATTGGC ((..(((....)))..)) FALSE

Determine whether this sequence has folding enthalpy no lower than -30 kcal/mol: GAGTTGGGAAACCAATTC ((.((((....)))).)) TRUE

Determine whether this sequence has folding enthalpy no lower than -30 kcal/mol: GAACAAGGAAACTTGTTC (((((((....))))))) FALSE

Determine whether this sequence has folding enthalpy no lower than -30 kcal/mol: GAAAATGGAAACATTTTC (((((((....))))))) FALSE

Determine whether this sequence has folding enthalpy no lower than -30 kcal/mol: CTGAGGAAACTCAG (((((....))))) TRUE

Determine whether this sequence has folding enthalpy no lower than -30 kcal/mol: GCAGTCGAAAGACTTGC ((((((....))).))) TRUE

Determine whether this sequence has folding enthalpy no lower than -30 kcal/mol: GTGGGAGGAAACCCCCAC (((((.(....).))))) FALSE

Determine whether this sequence has folding enthalpy no lower than -30 kcal/mol: GATGCCGAAAGGCGAATC ((((((....)))..))) TRUE

Determine whether this sequence has folding enthalpy no lower than -30 kcal/mol: GCATCCGGAAACGGACGC ((.((((....)))).)) FALSE

Determine whether this sequence has folding enthalpy no lower than -30 kcal/mol: GACTTAGGAAACTAGGTC (((.(((....))).))) FALSE

Determine whether this sequence has folding enthalpy no lower than -30 kcal/mol: GAGCAGCCGAAAGGCCTC (((..(((....)))))) TRUE

Determine whether this sequence has folding enthalpy no lower than -30 kcal/mol: GCTAGGTCGAAAGACAGC (((..(((....)))))) TRUE

Determine whether this sequence has folding enthalpy no lower than -30 kcal/mol: GTTTGGCCGAAAGGCAAC (((..(((....)))))) TRUE

Determine whether this sequence has folding enthalpy no lower than -30 kcal/mol: GCGCTCGAAAGAGTACGC ((((((....)))..))) TRUE

Determine whether this sequence has folding enthalpy no lower than -30 kcal/mol: GCATGCGGAAACGCACAC (..((((....))))..) TRUE

Determine whether this sequence has folding enthalpy no lower than -30 kcal/mol: GCTACGCGAAAGCCGAGC (((..((....))..))) TRUE

Determine whether this sequence has folding enthalpy no lower than -30 kcal/mol: GATCTTGCCAAAGATC ((((((....)))))) FALSE

Determine whether this sequence has folding enthalpy no lower than -30 kcal/mol: GTCGGAGGAAACTTCGAC ((((.((....)).)))) FALSE

Determine whether this sequence has folding enthalpy no lower than -30 kcal/mol: GAGAGGGGAAACCCTCTC (((((((....))))))) FALSE

Determine whether this sequence has folding enthalpy no lower than -30 kcal/mol: GCTCCCGAAAGGGCAAGC ((((((....)))..))) TRUE

Determine whether this sequence has folding enthalpy no lower than -30 kcal/mol: GACTACGAAAGTATAGTC ((((((....)))..))) TRUE

Determine whether this sequence has folding enthalpy no lower than -30 kcal/mol: GGTATCCGAAAGGAAACC (((.(((....))).))) FALSE

----------
Test: melting temperature; fluorescence melt of hairpins on a sequencing array, two-state fit, raised by 9.35 °C to match UV melts
Details: sodium 0.088 M
assayMetric: Tm
State the value with its unit after it.

Find the recorded Tm belonging to GAGACGCGAAAGCGCCTC (((.(((....))).))) and report it. 58.7 °C

Find the recorded Tm belonging to GCGGATCGAAAGATGCGC (((.(((....))).))) and report it. 66.3 °C

Find the recorded Tm belonging to GATCCCAGACGGGATC ((((((....)))))) and report it. 58.6 °C

Find the recorded Tm belonging to GGTGGTGGAAACGCCATC (.(((.(....).))).) and report it. 46.6 °C

Find the recorded Tm belonging to GCATCCGGAAACGGACGC ((.((((....)))).)) and report it. 51.3 °C

Find the recorded Tm belonging to GATCGTACGTACGATC ((((((....)))))) and report it. 57.9 °C

Find the recorded Tm belonging to GTAATCCGAAAGGAATAC (((.(((....))).))) and report it. 40.6 °C

Find the recorded Tm belonging to GCAGAGCGAAAGCCATGC (((..((....))..))) and report it. 45.7 °C

Find the recorded Tm belonging to GGCCAGAAATGGCC (((((....))))) and report it. 67.5 °C

Find the recorded Tm belonging to GACGAACGAAAGTTAGTC (((.(((....))).))) and report it. 49.9 °C

Find the recorded Tm belonging to GGTCGCGAAAGCGGTACC ((((((....)))..))) and report it. 46.5 °C

Find the recorded Tm belonging to GCACAGCGAAAGCCGGGC ((.(.((....)).).)) and report it. 55.7 °C

Find the recorded Tm belonging to GGGTTTGAAAAAACCC ((((((....)))))) and report it. 58.4 °C

Find the recorded Tm belonging to GGTCAAGGAAACCTGACC (((((.(....).))))) and report it. 46.5 °C

Source: the array DNA melting data of Ke et al. (doi:10.1101/2024.01.08.574731)
